System: AMO-1 cells
TEST_NAME: Antiproliferation assay (CellTiter-Glo, 72 h), AMO-1
Assay type: cell-based
CONDITION_SET: Homo sapiens, AMO1, 72 h, IC50, median; AMO-1, 72 h; read-out: Antiproli AMO-1 [M] median
Reported IC50 values for the following molecules.
MEASURE: IC50 (M)

[[record]]
molecule = "Cc1c2c(nn1CCCN1CCN(C)CC1)COCCCCn1c(C(=O)O)c(CCCOc3cccc4ccccc34)c3ccc(Cl)c-2c31 (single isomer, unassigned; enantiomer 1) [Example 49]"
unit_abbreviation = "M"
readout_value = "1.5e-06"

[[record]]
molecule = "Cc1c2c(nn1C)COCCCCn1c(C(=O)O)c(CCCOc3cccc4cc(F)ccc34)c3ccc(Cl)c-2c31 (single isomer, unassigned; enantiomer 1) [Example 16]"
unit_abbreviation = "M"
readout_value = "8.9e-06"

[[record]]
molecule = "CCc1c2c(nn1C)CN(CCC(C)(C)O)CCCCn1c(C(=O)O)c(CCCOc3cccc4cc(F)ccc34)c3ccc(Cl)c-2c31 (single isomer, unassigned; enantiomer 2)"
unit_abbreviation = "M"
readout_value = "2.4e-06"

[[record]]
molecule = "CCc1c2c(nn1C)CCCN(C)CCn1c(C(=O)O)c(CCCOc3cccc4cc(F)ccc34)c3ccc(Cl)c-2c31 (racemic)"
unit_abbreviation = "M"
readout_value = "9.1e-07"

[[record]]
molecule = "Cc1c2c(nn1C)CN(CC(F)(F)F)CCCCn1c(C(=O)O)c(CCCOc3cccc4cc(F)ccc34)c3ccc(Cl)c-2c31 (single isomer, unassigned; enantiomer 1) [Example 59]"
unit_abbreviation = "M"
readout_value = "1.5e-06"


====

Tested on: SUDHL5 cells
TEST_NAME: Antiproliferation assay (CellTiter-Glo, 72 h), SUDHL5
Type: cell-based
CONDITION_SET: Homo sapiens, SU-DHL-5, 72 h, IC50, median; SUDHL5, 72 h; read-out: Antiproli SUDHL5 [M] (median)
MEASURE: IC50 (M)

[[record]]
compound = "CCc1c2c(nn1C)CCCN(CCCCOC(C)=O)CCn1c(C(=O)O)c(CCCOc3cccc4cc(F)ccc34)c3ccc(Cl)c-2c31 (racemic) [Example 121]"
measure = "IC50"
readout_value = "9e-07"

[[record]]
compound = "CCc1c2c(nn1C)CCCN(C)CCn1c(C(=O)O)c(CCCOc3cccc4cc(F)ccc34)c3ccc(Cl)c-2c31 (racemic) [Example 115]"
measure = "IC50"
readout_value = "7.8e-07"

[[record]]
compound = "CCc1c2c(nn1C)CCCN(CCCCO)CCn1c(C(=O)O)c(CCCOc3cccc4cc(F)ccc34)c3ccc(Cl)c-2c31 (racemic) [Example 122]"
measure = "IC50"
readout_value = "6.8e-07"

[[record]]
compound = "CCc1c2c(nn1C)COCC(O)CCn1c(C(=O)O)c(CCCOc3cccc4cc(F)ccc34)c3ccc(Cl)c-2c31 (stereo not drawn) [Example 99]"
measure = "IC50"
readout_value = "2.6e-07"

[[record]]
compound = "CCc1c2c(nn1C)CCCOCCn1c(C(=O)O)c(CCCOc3cccc4cc(F)ccc34)c3ccc(Cl)c-2c31 (racemic) [Example 124]"
measure = "IC50"
readout_value = "4.4e-06"

[[record]]
compound = "CCc1c2c(nn1C)CCCN(CC(F)(F)C(F)F)CCn1c(C(=O)O)c(CCCOc3cccc4cc(F)ccc34)c3ccc(Cl)c-2c31 (racemic) [Example 123]"
measure = "IC50"
readout_value = "2.2e-06"

[[record]]
compound = "Cc1c2c(nn1C)COCC1CCC1Cn1c(C(=O)O)c(CCCOc3cccc4ccccc34)c3ccc(Cl)c-2c31 (single isomer, unassigned; stereoisomer 2) [Example 64]"
measure = "IC50"
readout_value = "5e-07"

[[record]]
compound = "CCc1c2c(nn1C)CN(C)CCCn1c(C(=O)O)c(CCCOc3cccc4cc(F)ccc34)c3ccc(Cl)c-2c31 (racemic) [Example 112]"
measure = "IC50"
readout_value = "1.5e-06"

[[record]]
compound = "CCc1nn(C)c2c1-c1c(Cl)ccc3c(CCCOc4cccc5cc(F)ccc45)c(C(=O)O)n(c13)CCOCCC2 [Example 125]"
measure = "IC50"
readout_value = "7.9e-06"


====

Tested on: AMO-1 cells
TEST_NAME: Antiproliferation assay (CellTiter-Glo, 72 h), AMO-1
Format: cell-based
CONDITION_SET: Homo sapiens, AMO1, 72 h, IC50, median; AMO-1, 72 h; read-out: Antiproli AMO-1 [M] median
Reported log10 of IC50 values for the following compounds.
MEASURE: log10 of IC50 (log10 of the value in M)

[[record]]
compound = "CCc1c2c(nn1C)CN(C)CCCCn1c(C(=O)O)c(CCCOc3cccc4ccccc34)c3ccc(Cl)c-2c31 (single isomer, unassigned; enantiomer 1) [Example 23]"
measure = "log10 of IC50"
readout_value = -6.21

[[record]]
compound = "CCc1c2c(nn1C)CCCN(CC(F)F)CCn1c(C(=O)O)c(CCCOc3cccc4cc(F)ccc34)c3ccc(Cl)c-2c31 (racemic)"
measure = "log10 of IC50"
readout_value = -6.29

[[record]]
compound = "CCc1c2c(nn1C)CN(CCC1CCOCC1)CCCCn1c(C(=O)O)c(CCCOc3cccc4cc(F)ccc34)c3ccc(Cl)c-2c31 (racemic) [Example 135]"
measure = "log10 of IC50"
readout_value = -6.92

[[record]]
compound = "CCc1c2c(nn1C)COCC1(CCn3c(C(=O)O)c(CCCOc4cccc5ccccc45)c4ccc(Cl)c-2c43)CC1 (racemic) [Example 72]"
measure = "log10 of IC50"
readout_value = -5.55

[[record]]
compound = "Cc1c2c(nn1C)COCC1CCC1Cn1c(C(=O)O)c(CCCOc3cccc4ccccc34)c3ccc(Cl)c-2c31 (single isomer, unassigned; stereoisomer 2) [Example 64]"
measure = "log10 of IC50"
readout_value = -5.80

[[record]]
compound = "CCc1c2c(nn1C)COCC(O)CCn1c(C(=O)O)c(CCCOc3cccc4cc(F)ccc34)c3ccc(Cl)c-2c31 (stereo not drawn)"
measure = "log10 of IC50"
readout_value = -6.28

[[record]]
compound = "CCc1nn(C)c2c1-c1c(Cl)ccc3c(CCCOc4cccc5cc(F)ccc45)c(C(=O)O)n(c13)CCCCN(C)C2 (racemic) [Example 39]"
measure = "log10 of IC50"
readout_value = -6.62

[[record]]
compound = "CCc1c2c(nn1C)CN(C(=O)OCCOC)CCCCn1c(C(=O)O)c(CCCOc3cccc4cc(F)ccc34)c3ccc(Cl)c-2c31"
measure = "log10 of IC50"
readout_value = -6.47

[[record]]
compound = "CCc1c2c(nn1C)CN(CC(F)(F)F)CCCCn1c(C(=O)O)c(CCCOc3cccc4cc(F)ccc34)c3ccc(Cl)c-2c31 (racemic)"
measure = "log10 of IC50"
readout_value = -6.17


====

Reported IC50 values for the following compounds.
Tested on: AMO-1 cells
TEST_NAME: Antiproliferation assay (CellTiter-Glo, 72 h), AMO-1
Format: cell-based
CONDITION_SET: Homo sapiens, AMO1, 72 h, IC50, median; AMO-1, 72 h; read-out: Antiproli AMO-1 [M] median
Procedure: Assessment of the Anti-Proliferative Effect of Compounds in Different Cell Lines The impact of compounds on the proliferation of different cell lines was assessed using the CellTiter-Glo® Luminescent Cell Viability reagent from Promega (G7573). In parallel, cells were plated in a reference (day 0) plate for time zero determination. Rim wells were excluded. […] After 72 h incubation, the treated plates were measured in the same way as the day 0 plate mentioned above.
MEASURE: IC50 (M)

[[record]]
compound = "Cc1c2c(nn1C)COCC(F)(F)CCn1c(C(=O)O)c(CCCOc3cccc4cc(F)ccc34)c3ccc(Cl)c-2c31 (racemic) [Example 90]"
measure = "IC50"
readout_value = "4.9e-06"

[[record]]
compound = "CCc1c2c(nn1C)CCCCCCn1c(C(=O)O)c(CCCOc3cccc4cc(F)ccc34)c3ccc(Cl)c-2c31 (single isomer, unassigned; enantiomer 1)"
measure = "IC50"
readout_value = "1.1e-06"

[[record]]
compound = "Cc1c2c(nn1C)COCCC(F)(F)Cn1c(C(=O)O)c(CCCOc3cccc4ccccc34)c3ccc(Cl)c-2c31 [Example 95]"
measure = "IC50"
readout_value = "9.7e-07"

[[record]]
compound = "CCc1c2c(nn1C)COCCCCn1c(C(=O)O)c(CCCOc3cccc4cc(F)ccc34)c3ccc(Cl)c-2c31 (racemic) [Example 36]"
measure = "IC50"
readout_value = "2.9e-07"

[[record]]
compound = "CCc1c2c(nn1C)CCCCCCn1c(C(=O)O)c(CCCOc3cccc4ccccc34)c3ccc(Cl)c-2c31 (single isomer, unassigned; enantiomer 1)"
measure = "IC50"
readout_value = "2.2e-06"

[[record]]
compound = "CCc1c2c(nn1C)CNCCCCn1c(C(=O)O)c(CCCOc3cccc4cc(F)ccc34)c3ccc(Cl)c-2c31 (racemic)"
measure = "IC50"
readout_value = "6.3e-06"

[[record]]
compound = "CCc1nn(C)c2c1-c1c(Cl)ccc3c(CCCOc4cccc5cc(F)ccc45)c(C(=O)O)n(c13)CCOCCC2"
measure = "IC50"
readout_value = "1.9e-06"

[[record]]
compound = "Cc1c2c(nn1C)COCC1CCC1Cn1c(C(=O)O)c(CCCOc3cccc4ccccc34)c3ccc(Cl)c-2c31 (single isomer, unassigned; enantiomer 1) [Example 78]"
measure = "IC50"
readout_value = "3e-06"

[[record]]
compound = "CCc1c2c(nn1C)CN(CCCO)CCCCn1c(C(=O)O)c(CCCOc3cccc4cc(F)ccc34)c3ccc(Cl)c-2c31 (racemic)"
measure = "IC50"
readout_value = "4.4e-07"

[[record]]
compound = "Cc1c2c(nn1C)COCC1CC1Cn1c(C(=O)O)c(CCCOc3cccc4ccccc34)c3ccc(Cl)c-2c31 (single isomer, unassigned; stereoisomer 1)"
measure = "IC50"
readout_value = "6e-07"

[[record]]
compound = "CCc1c2c(nn1C)CN(C(=O)OCCC1CCOCC1)CCCCn1c(C(=O)O)c(CCCOc3cccc4cc(F)ccc34)c3ccc(Cl)c-2c31"
measure = "IC50"
readout_value = "4.7e-07"

[[record]]
compound = "CCc1c2c(nn1C)COCCCCn1c(C(=O)O)c(CCCOc3cccc4ccccc34)c3ccc(Cl)c-2c31 (single isomer, unassigned; enantiomer 1)"
measure = "IC50"
readout_value = "8.7e-07"

[[record]]
compound = "Cc1nn(C)c2c1-c1c(Cl)ccc3c(CCCOc4cccc5ccccc45)c(C(=O)O)n(c13)CCCCOC2 (single isomer, unassigned; enantiomer 1) [Example 3]"
measure = "IC50"
readout_value = "2.5e-06"

[[record]]
compound = "Cc1c2c(nn1C)COCC1CCC1Cn1c(C(=O)O)c(CCCOc3cccc4ccccc34)c3ccc(Cl)c-2c31 (single isomer, unassigned)"
measure = "IC50"
readout_value = "1.9e-06"

[[record]]
compound = "Cc1c2c(nn1C)COCCn1c(C(=O)O)c(CCCOc3cccc4ccccc34)c3ccc(Cl)c-2c31 (single isomer, unassigned) [Example 88]"
measure = "IC50"
readout_value = "6.7e-06"

